- experimental_target: T1, human GM-CSFRα, full length on cells (human, UniProt P15509 23-400)
- T1 sequence: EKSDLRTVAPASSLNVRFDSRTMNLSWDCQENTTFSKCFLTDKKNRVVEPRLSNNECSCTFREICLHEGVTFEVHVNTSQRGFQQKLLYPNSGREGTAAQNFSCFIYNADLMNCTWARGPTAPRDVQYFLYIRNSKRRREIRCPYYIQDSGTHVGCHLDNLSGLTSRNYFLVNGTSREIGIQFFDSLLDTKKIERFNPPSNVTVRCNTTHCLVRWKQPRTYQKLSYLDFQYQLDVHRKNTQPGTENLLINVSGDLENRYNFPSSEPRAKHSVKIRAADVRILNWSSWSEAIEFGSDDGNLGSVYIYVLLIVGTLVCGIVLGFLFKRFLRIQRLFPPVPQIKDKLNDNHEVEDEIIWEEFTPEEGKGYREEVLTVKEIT
- method_notes: cell-based or functional assay

binder: E35-scFv HE31N (scFv, V domains shown) VH: QMQLVQSGAEVKKPGASVKVSCKVSGYTLTNLSIHWVRQAPGKGLEWMGGFDPEDGETIYAQKFQGRVTMTGDTSTDTAYLELSSLRSEDTALYYCATGRYTSLATTYGFDYWGQGTLVTVSS VL: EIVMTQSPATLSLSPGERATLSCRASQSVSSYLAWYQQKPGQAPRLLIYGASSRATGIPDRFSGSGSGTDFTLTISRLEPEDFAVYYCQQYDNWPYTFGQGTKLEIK
IC50, TF-1 cell proliferation [µg/mL]: 0.11
//
binder: E35-scFv LD92S (scFv, V domains shown) VH: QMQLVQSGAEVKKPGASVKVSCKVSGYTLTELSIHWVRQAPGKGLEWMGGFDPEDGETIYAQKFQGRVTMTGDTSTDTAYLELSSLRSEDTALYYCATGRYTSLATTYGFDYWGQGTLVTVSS VL: EIVMTQSPATLSLSPGERATLSCRASQSVSSYLAWYQQKPGQAPRLLIYGASSRATGIPDRFSGSGSGTDFTLTISRLEPEDFAVYYCQQYSNWPYTFGQGTKLEIK
IC50, TF-1 cell proliferation [µg/mL]: 0.598
//
binder: E35-scFv LS52A (scFv, V domains shown) VH: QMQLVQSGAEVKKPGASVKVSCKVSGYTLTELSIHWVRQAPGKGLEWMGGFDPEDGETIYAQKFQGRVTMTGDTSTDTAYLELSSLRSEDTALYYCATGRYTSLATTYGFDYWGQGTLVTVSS VL: EIVMTQSPATLSLSPGERATLSCRASQSVSSYLAWYQQKPGQAPRLLIYGAASRATGIPDRFSGSGSGTDFTLTISRLEPEDFAVYYCQQYDNWPYTFGQGTKLEIK
IC50, TF-1 cell proliferation [µg/mL]: 0.068

Source of measurements: patent US20230002496A1
